# Tested on: SF-539 CNS
# methodSummary: NCI-60 one-dose screen, 48 h (100 = growth as untreated, 0 = no growth, -100 = all killed)
# assaySetup: 10 µM unless noted
# Procedure: Cells are grown in 96 well plates and exposed to the test compound for 48 hours. Compounds are tested at a single concentration, which is 10^-5 M for most compounds. The reported endpoint is percent growth (GI% or GIPRCNT), where numbers from 0 - 100% represent growth inhibition, and numbers from -100% - 0 represent cell death. For example, a value of 40 represents 60% growth inhibition. A value of 0 means no net growth occurred over the course of the experiment. […]
This is part of a sample that, as a whole, favours compounds with a hit. Of some 83,000 tested, about 20% had one in any assay. Active and inactive are the calls of the source. The calls were made as follows: active = growth percent below 10; inactive = the rest.
Known growth of a selection of compounds

Please review the following examples before continuing.
Task item: Query for SF-539 CNS: what growth does the record show for "O=c1c2cc(F)ccc2sc2c(Nc3cccnc3)nc3ccccc3c12" ?
Reply: 82.1% (inactive)

Task item: Also need O=C(NC(Cc1nnc2n(Cc3ccccc3)c(=O)c3c4c(sc3n12)CCCC4)c1ccc(Cl)cc1)c1ccccc1 (configuration not stated) , thanks.
Reply: 80.2% (inactive)

Task item: // same read-out, input: "Cc1ccc2c(c1)Sc1c(ccc3ccccc13)N2"
Reply: 47.5% (inactive)

Task item: And then CC1CC2Oc3ccc(Cl)cc3C(=O)N2O1 (configuration not stated) , what is it?
Reply: 102% (inactive)

Task item: Note, next up: "CCCCCCCCCCCCCCCCCCOc1ccc(CC(=O)OCC[N+]2(C)CCCC2)cc1"
Reply: 99.7% (inactive)

Task item: Repeat for the following compound: "COc1cc(/C=C2\C(=O)ON=C2C)cc(OC)c1OC"
Reply: 94.7% (inactive)

Lab note: next compound to report on.
Task item: Give growth (SF-539 CNS) of the following compound: "O=C1N=c2cc3c(cc2=C/C1=C/c1sc(=S)n(CCc2ccc(O)cc2)c1O)OCCO3"
Reply: 95.8% (inactive)

----------
# Tested on: RXF 393 renal
# methodSummary: NCI-60 one-dose screen, 48 h
# assaySetup: 10 µM unless noted
This is part of a sample that, as a whole, favours compounds with a hit. Of some 83,000 tested, about 20% had one in any assay. Calls of active or inactive are those of the source. Rule for the calls: active = growth percent below 10; inactive = the rest.
Select the matching outcome among active, inactive

Task item: Assay result, entry "Cc1ccc2nc(C)c(-c3nnc(SCc4ccc(C#N)cc4)o3)n2c1" — outcome?
Reply: inactive

Task item: Okay, and "CNC(=O)c1cc(Oc2cccc3nc(Nc4ccc(F)c(Cl)c4)ccc23)ccn1" ?
Reply: inactive

Task item: Moving on to "COc1ccc(Nc2nnc(SCc3ccccc3F)s2)cc1"
Reply: inactive

----------
Recorded growth by entry
# Tested on: DU-145 prostate
# methodSummary: NCI-60 one-dose screen, 48 h (100 = growth as untreated, 0 = no growth, -100 = all killed)
# assaySetup: 10 µM unless noted
# Protocol: Cells are grown in 96 well plates and exposed to the test compound for 48 hours. Compounds are tested at a single concentration, which is 10^-5 M for most compounds. The reported endpoint is percent growth (GI% or GIPRCNT), where numbers from 0 - 100% represent growth inhibition, and numbers from -100% - 0 represent cell death. For example, a value of 40 represents 60% growth inhibition. A value of 0 means no net growth occurred over the course of the experiment. […]
About 83,000 compounds went through this panel and 20% of them were active in at least one assay; those are over-represented in the sample as a whole.
Numeric only. Scale: %

Consider the following illustrative entries.
Task item: Given "O=C(Nc1ccccc1-c1nc2ccccc2c(=O)[nH]1)c1cc2ccccc2[nH]1" , state its recorded growth.
Reply: 102

Task item: Try "Cc1nn(-c2ccccc2)c(Cl)c1/C=C(/NC(=O)c1ccccc1)c1nc2ccccc2[nH]1" next.
Reply: 117

Task item: Field entry: "Cc1cccc(Cc2cnc(NC(=O)c3ccc4nnsc4c3)s2)c1"
Reply: 74

Further cases:
Task item: Fill in: growth of "COc1ccc(-c2nc(SCCC(C)C)nc(N/N=C\c3cccc([N+](=O)[O-])c3)c2C#N)cc1" is ___
Reply: 34.1

Task item: Same thing, different compound: "NS(=O)(=O)c1cnccc1Sc1ccncc1S(N)(=O)=O"
Reply: 102

Task item: What do you get for "COc1ccc(-c2cc(-c3cc(OC)ccc3OC)nc(SCC(=O)c3ccccc3)c2C#N)cc1" ?
Reply: 106

Task item: Same thing, different compound: Nc1nc(N)c2c(n1)NC(c1ccccc1)C1CCc3ccccc3C1=N2 (configuration not stated)
Reply: 49.1
